target: T1, cynomolgus complement C3b protein (cynomolgus monkey (Macaca fascicularis)); test: SPR (Biacore), C3b captured by anti-C3d antibody, Fab as analyte
T1 construct: also called cyno C3b; cynoC3b
pKd: −log10 of the molar value.
property measured: pKd

| binder | property measured | assay result |
| --- | --- | --- |
| MOR9610 Fab format (Fab, V domains shown) VH: EVQLVQSGAEVKKPGSSVKVSCKASGGTFSSYTFSWVRQAPGQGLEWMGNILPIFGDANYAQKFQGRVTITADESTSTAYMELSSLRSEDTAVYYCARNKGAFYYMSTYPSLDVWGQGTLVTVSS VL: DIQMTQSPSSLSASVGDRVTITCRASQNINYYLNWYQQKPGKAPKLLIYDAFSLQSGVPSRFSGSGSGTDFTLTISSLQPEDFATYYCQQSIAVPPFTFGQGTKVEIK | pKd | 10.15 |
| MOR9675 Fab format (Fab, V domains shown) VH: EVQLVQSGAEVKKPGASVKVSCKASGYTFTGYYINWVRQAPGQGLEWMGIISPNQGTTGYAQKFQGRVTMTRDTSISTAYMELSSLRSEDTAVYYCARGNYDHLDYWGQGTLVTVSS VL: DIQMTQSPSSLSASVGDRVTITCRASQGISNYLNWYQQKPGKAPKLLIYDASTLQSGVPSRFSGSGSGTDFTLTISSLQPEDFATYYCQQDWHTLPVTFGQGTKVEIK | pKd | 9.25 |
| MOR9674 Fab format (Fab, V domains shown) VH: EVQLVQSGAEVKKPGASVKVSCKASGYTFTSYSMHWVRQAPGQGLEWMGLINPYNGNTHYAQKFQGRVTMTRDTSISTAYMELSSLRSEDTAVYYCARMLRFDVWGQGTLVTVSS VL: ESALTQPASVSGSPGQSITISCTGTSSDGGGYNYVSWYQQHPGKAPKLMIYGVSNRPSGVSNRFSGSKSGNTASLTISGLQAEDEADYYCQTYTRYSDSPVFGGGTKLTVLG | pKd | 9.92 |
